Test system: Staphylococcus aureus (ATCC 29213)
measuredQuantity: MIC (µM)
Give the value in µM but do not write µM after it.

Requested read-out MIC, target or system Staphylococcus aureus (ATCC 29213), entry CC1(C)S[C@@H]2[C@H](NC(=O)[C@H](N)c3ccccc3)C(=O)N2[C@H]1C(=O)O [AMP, ampicillin] 6.1
